# ASSAY_TARGET: T1, unphosphorylated full-length MOB1A(K104E/K105E), recombinant (human, UniProt Q9H8S9 1-216, K104E | K105E)
# T1 sequence: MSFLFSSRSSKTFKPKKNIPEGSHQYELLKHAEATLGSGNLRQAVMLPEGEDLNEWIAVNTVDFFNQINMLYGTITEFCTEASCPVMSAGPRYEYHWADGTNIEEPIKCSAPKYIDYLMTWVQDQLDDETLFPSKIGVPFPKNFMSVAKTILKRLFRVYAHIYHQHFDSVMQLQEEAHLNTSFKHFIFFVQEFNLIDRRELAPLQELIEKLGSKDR
# PROCEDURE_SUMMARY: ITC
pKd: −log10 of the molar value.
The binders listed here are annotated with their pKd.

| BINDER | pKd |
| --- | --- |
| LATS1 (640-703, V647Y) (domain or fragment, human, UniProt O95835 640-703, looked up, human LATS1, residues 640-703 (NTR); also called LATS1(V647Y); source: E. coli BL21(DE3), purified (Ni-NTA)) KFFMEQHYENVLKSHQQRLHRKKQLENEMMRVGLSQDAQDQMRKMLCQKESNYIRLKRAKMDKS | 4.85 |
| human NDR2 (residues 25-88), N-terminal regulatory domain (NTR) (domain or fragment, UniProt Q9Y2H1 25-88, looked up, human NDR2, residues 25-88 (NTR); also called NDR2 (25-88); NTR of NDR2; source: E. coli BL21(DE3), purified (Ni-NTA)) KLTLENFYSNLILQHEERETRQKKLEVAMEEEGLADEEKKLRRSQHARKETEFLRLKRTRLGLD | 4.77 |
| LATS2 (603-666, V610Y) (domain or fragment, human, UniProt Q9NRM7 603-666, looked up, human LATS2, residues 603-666 (NTR), codon-optimized synthetic gene; also called LATS2(V610Y); source: E. coli BL21(DE3), purified (Ni-NTA)) KFFMEQHYENVIKTYQQKVNRRLQLEQEMAKAGLCEAEQEQMRKILYQKESNYNRLKRAKMDKS | 4.91 |
| human NDR1 (residues 24-87), NTR (domain or fragment, UniProt Q15208 24-87, looked up, human NDR1, residues 24-87 (NTR); also called NTR of NDR1; source: E. coli BL21(DE3), purified (Ni-NTA)) KVTLENFYSNLIAQHEEREMRQKKLEKVMEEEGLKDEEKRLRRSAHARKETEFLRLKRTRLGLE | 5.10 |
